Source of measurements: patent US4065570A

Run Description: cytotoxicity against Vero cells
Format: cell-based, African green monkey
Condition Summary: african green monkey; Vero cells; maximal non-toxic concentration; read-out: Cytotoxicity CTD0
Experimental: In preparing the compounds for testing, they were handled aseptically throughout. […] The cells were grown in test tubes in a suitable medium. […] After the virus was added, the infected culture was incubated at 37° C for a number of days and the cytopathic effect of the virus observed and recorded. The results were read every day in all of the tubes and the destruction of cells assessed in precentage of the cell sheet destroyed: 0-25-50-75-100%. […]
Reported Endpoint: MNTC
Report field: quantity (unit follows the number).

Prompt: Indicate the recorded MNTC value for this compound: COc1ccc(C=C2C(=O)N(C(C)=O)C(=O)N2C(C)=O)cc1OC
Completion: 10 µg/mL
